The values you see were collected from patent US12448377B2.

# assayed-target: human orexin type 2 receptor (Homo sapiens, UniProt O43614)
# Construct: expressed in transfected cells
# Sequence (O43614 1-444): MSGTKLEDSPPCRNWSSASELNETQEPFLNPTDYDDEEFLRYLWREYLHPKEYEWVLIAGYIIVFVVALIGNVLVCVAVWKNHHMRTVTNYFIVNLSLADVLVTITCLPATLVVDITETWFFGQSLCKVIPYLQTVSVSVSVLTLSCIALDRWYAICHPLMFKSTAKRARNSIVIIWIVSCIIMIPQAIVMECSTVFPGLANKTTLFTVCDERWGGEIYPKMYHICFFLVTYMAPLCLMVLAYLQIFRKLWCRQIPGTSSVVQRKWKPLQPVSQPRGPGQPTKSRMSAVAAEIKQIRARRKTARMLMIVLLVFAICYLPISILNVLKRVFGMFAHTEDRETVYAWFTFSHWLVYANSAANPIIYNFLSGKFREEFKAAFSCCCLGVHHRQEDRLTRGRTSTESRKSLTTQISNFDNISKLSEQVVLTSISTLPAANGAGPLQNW
# procedure-text: Measurement of orexin type 2 receptor agonist activity (calcium fluorescence, CHO cells forcibly expressing human OX2 receptor)
# Format: cell-based
# settings: compound at 3 μM, DMSO = 0%, orexin A (human) 10 nM = 100%
# cutoff 90% applies to OX2R agonist activity (3 μM, %); >= gives t, < gives f

molecule	assayed-target	label-value
CCS(=O)(=O)NC1CCc2ccc(C)c(=O)n2C1COC1CCC(C(C)C)CC1 (racemic)	human orexin type 2 receptor (Homo sapiens, UniProt O43614)	t
Cc1ccc2n(c1=O)C(COC1CCC(c3ccccc3C(F)(F)F)CC1)C(NS(C)(=O)=O)CC2 (stereo not drawn)	human orexin type 2 receptor (Homo sapiens, UniProt O43614)	t
CCC1CCC(OCC2C(NS(=O)(=O)CC)CCc3ccc(C)c(=O)n32)CC1 (racemic)	human orexin type 2 receptor (Homo sapiens, UniProt O43614)	t
CCCCCC1CCC(OCC2C(NS(=O)(=O)C3CC3)CCc3ccc(C)c(=O)n32)CC1 (racemic)	human orexin type 2 receptor (Homo sapiens, UniProt O43614)	t
Cc1ccc2n(c1=O)C(COC1CCC(CC(C)C)CC1)C(NS(C)(=O)=O)CC2 (racemic)	human orexin type 2 receptor (Homo sapiens, UniProt O43614)	t
Cc1ccc(C2CCC(OCC3C(NS(=O)(=O)C4CC4)CCc4ccc(C)c(=O)n43)CC2)cc1 (racemic)	human orexin type 2 receptor (Homo sapiens, UniProt O43614)	f
CCc1ccc2n(c1=O)C(COC1CCC(C)CC1)C(NS(C)(=O)=O)CC2 (racemic)	human orexin type 2 receptor (Homo sapiens, UniProt O43614)	t
Cc1ccc2n(c1=O)C(COC1CCC(C(C)(C)C)CC1)C(NS(=O)(=O)N(C)C)CC2 (racemic)	human orexin type 2 receptor (Homo sapiens, UniProt O43614)	t
Cc1ccc2n(c1=O)C(COC1CCC(OCC3CC3)CC1)C(NS(C)(=O)=O)CC2 (stereo not drawn)	human orexin type 2 receptor (Homo sapiens, UniProt O43614)	f
COC(C)(C)C1CCC(OCC2C(NS(C)(=O)=O)CCc3ccc(C)c(=O)n32)CC1 (racemic)	human orexin type 2 receptor (Homo sapiens, UniProt O43614)	t
CC#CC1CCC(OCC2C(NS(C)(=O)=O)CCc3ccc(C)c(=O)n32)CC1 (racemic) [Example 109]	human orexin type 2 receptor (Homo sapiens, UniProt O43614)	t
Cc1ccc2n(c1=O)C(COC1CCC(COC3CCCCO3)CC1)C(NS(C)(=O)=O)CC2 (racemic)	human orexin type 2 receptor (Homo sapiens, UniProt O43614)	f

---

# assayed-target: human orexin type 2 receptor (Homo sapiens)
# Construct: expressed in transfected cells
# procedure-text: Measurement of orexin type 2 receptor agonist activity (calcium fluorescence, CHO cells forcibly expressing human OX2 receptor)
# Format: cell-based
# settings: compound at 3 μM, DMSO = 0%, orexin A (human) 10 nM = 100%

molecule	OX2R agonist activity (3 μM, %)
CCC1CCC(OCC2C(NS(C)(=O)=O)CCc3c(C4CC4)cc(C)c(=O)n32)CC1 (centres unmarked) [Example 115]	100
Cc1ccc2n(c1=O)C(COC1CCC(C3CC3C)CC1)C(NS(C)(=O)=O)CC2 (racemic) [Example 97]	94
CC#CC1CCC(OCC2C(NS(=O)(=O)N(C)C)CCc3ccc(C)c(=O)n32)CC1 (centres unmarked) [Example 144]	99
Cc1cccc(C2CCC(OCC3C(NS(=O)(=O)C4CC4)CCc4ccc(C)c(=O)n43)CC2)c1 (racemic) [Example 25]	92
Cc1ccc2n(c1=O)C(COC1CCC(C(C)C)CC1)C(NS(=O)(=O)N(C)C)CC2 (racemic) [Example 28]	92
Cc1ccc2n(c1=O)C(COC1CCC(C(F)(F)F)CC1)C(NS(C)(=O)=O)CC2 (racemic) [Example 37]	94
CC#CC1CCC(OCC2C(NS(=O)(=O)NC)CCc3ccc(C)c(=O)n32)CC1 (centres unmarked) [Example 149]	95
CCC1CCC(OCC2C(NS(C)(=O)=O)CCc3ccc(C)c(=O)n32)CC1 (centres unmarked) [Example 9]	68

---

# assayed-target: human orexin type 2 receptor (Homo sapiens)
# Construct: expressed in transfected cells
# procedure-text: Measurement of orexin type 2 receptor agonist activity (calcium fluorescence, CHO cells forcibly expressing human OX2 receptor)
# Assay type: cell-based
# settings: compound at 3 μM, DMSO = 0%, orexin A (human) 10 nM = 100%
Param label: returns 1 (yes) when OX2R agonist activity (3 μM, %) < 90%, returns 0 (no) otherwise, including exact equality.

molecule	label-value
CCOC1CCC(OCC2C(NS(C)(=O)=O)CCc3ccc(C)c(=O)n32)CC1 (racemic) [Example 59]	0 (no)
Cc1ccc2n(c1=O)C(COC1CCC(C(C)(C)C)CC1)C(NS(=O)(=O)C1CC1)CC2 (racemic)	1 (yes)
Cc1cccc(C2CCC(OCC3C(NS(=O)(=O)N(C)C)CCc4ccc(C)c(=O)n43)CC2)c1 (racemic)	1 (yes)

---

# assayed-target: human orexin type 2 receptor (Homo sapiens)
# Construct: expressed in transfected cells
# Sequence (O43614 1-444): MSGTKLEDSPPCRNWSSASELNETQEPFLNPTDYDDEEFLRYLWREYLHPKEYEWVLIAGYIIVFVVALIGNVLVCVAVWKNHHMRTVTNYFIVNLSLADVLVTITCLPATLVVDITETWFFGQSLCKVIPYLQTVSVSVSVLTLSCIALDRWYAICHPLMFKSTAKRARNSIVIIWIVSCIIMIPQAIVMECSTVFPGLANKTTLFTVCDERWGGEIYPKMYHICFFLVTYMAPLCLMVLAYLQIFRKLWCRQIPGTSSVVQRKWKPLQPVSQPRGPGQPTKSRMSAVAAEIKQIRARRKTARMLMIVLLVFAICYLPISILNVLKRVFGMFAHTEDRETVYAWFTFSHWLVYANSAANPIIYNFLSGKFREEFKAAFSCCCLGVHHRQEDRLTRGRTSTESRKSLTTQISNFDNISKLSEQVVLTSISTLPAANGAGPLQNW
# procedure-text: Measurement of orexin type 2 receptor agonist activity (calcium fluorescence, CHO cells forcibly expressing human OX2 receptor)
# Assay type: cell-based
# settings: compound at 3 μM, DMSO = 0%, orexin A (human) 10 nM = 100%
# Lookup of reported OX2R agonist activity (3 μM, %) keyed by entry
recorded-endpoint: OX2R agonist activity (3 μM, %)

compound	result-units	value-reported
Cc1ccc2n(c1=O)C(COC1CCC(c3ccccn3)CC1)C(NS(C)(=O)=O)CC2 (racemic)	%	99
CCS(=O)(=O)NC1CCc2ccc(C)c(=O)n2C1COC1CCC(C(C)(C)C)CC1 (racemic)	%	96
COc1ccccc1C1CCC(OCC2C(NS(C)(=O)=O)CCc3ccc(C)c(=O)n32)CC1 (stereo not shown)	%	87
CC#CC1CCC(OCC2C(NS(=O)(=O)CC)CCc3ccc(C)c(=O)n32)CC1 (stereo not shown)	%	99

---

# assayed-target: human orexin type 2 receptor (Homo sapiens)
# Construct: expressed in transfected cells
# procedure-text: Measurement of orexin type 2 receptor agonist activity (calcium fluorescence, CHO cells forcibly expressing human OX2 receptor)
# Format: cell-based
# settings: compound at 3 μM, DMSO = 0%, orexin A (human) 10 nM = 100%
recorded-endpoint: OX2R agonist activity (3 μM, %)

molecule	assayed-target	value-reported
CCS(=O)(=O)NC1CCc2ccc(C)c(=O)n2C1COC1CCC(c2ccc(C)cc2)CC1 (racemic)	human orexin type 2 receptor (Homo sapiens)	78
Cc1ccc2n(c1=O)C(COC1CCC(C3CC3)CC1)C(NS(C)(=O)=O)CC2 (centres unmarked)	human orexin type 2 receptor (Homo sapiens)	98
Cc1ccc2n(c1=O)C(COC1CCC(c3c(F)cccc3F)CC1)C(NS(C)(=O)=O)CC2 (centres unmarked)	human orexin type 2 receptor (Homo sapiens)	89
Cc1ccc2n(c1=O)C(COC1CCC(C(C)C)CC1)C(NS(C)(=O)=O)CC2 (racemic)	human orexin type 2 receptor (Homo sapiens)	96
Cc1ccc2n(c1=O)C(COC1CCC(C3CCC3)CC1)C(NS(C)(=O)=O)CC2 (racemic)	human orexin type 2 receptor (Homo sapiens)	97
C=CC1CCC(OCC2C(NS(C)(=O)=O)CCc3ccc(C)c(=O)n32)CC1 (racemic)	human orexin type 2 receptor (Homo sapiens)	91
Cc1ccccc1C1CCC(OCC2C(NS(C)(=O)=O)CCc3ccc(C)c(=O)n32)CC1 (racemic)	human orexin type 2 receptor (Homo sapiens)	89
C#CC1CCC(OCC2C(NS(C)(=O)=O)CCc3ccc(C)c(=O)n32)CC1 (racemic)	human orexin type 2 receptor (Homo sapiens)	101
